Examples of compounds with documented AC50 follow.
- TESTED_ON: Prostaglandin G/H synthase 1 (Homo sapiens)
- Sequence (P23219 whole entry): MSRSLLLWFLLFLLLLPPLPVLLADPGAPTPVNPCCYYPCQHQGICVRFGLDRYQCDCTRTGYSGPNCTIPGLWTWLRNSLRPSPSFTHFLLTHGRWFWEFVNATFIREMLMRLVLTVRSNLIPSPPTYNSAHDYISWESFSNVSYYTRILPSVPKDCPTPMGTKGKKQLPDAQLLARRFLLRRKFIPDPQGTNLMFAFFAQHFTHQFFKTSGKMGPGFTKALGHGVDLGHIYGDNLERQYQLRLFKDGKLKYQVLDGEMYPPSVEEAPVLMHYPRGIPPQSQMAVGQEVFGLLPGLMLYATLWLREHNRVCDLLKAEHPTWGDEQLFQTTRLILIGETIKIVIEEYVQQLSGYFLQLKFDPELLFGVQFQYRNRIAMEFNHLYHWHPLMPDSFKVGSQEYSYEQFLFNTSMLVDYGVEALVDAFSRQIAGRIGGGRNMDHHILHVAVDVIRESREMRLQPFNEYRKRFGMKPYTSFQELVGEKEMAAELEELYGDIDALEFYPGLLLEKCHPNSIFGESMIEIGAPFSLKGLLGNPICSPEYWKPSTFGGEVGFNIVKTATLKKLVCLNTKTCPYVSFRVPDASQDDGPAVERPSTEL
- Type: functional
VALUE_TYPE: AC50

- OC(CN1CCCCC1)c1cc(-c2ccccc2)on1 (configuration not stated): > 30 µM
- CC1(C)S[C@@H]2[C@H](NC(=O)[C@H](NC(=O)c3cnc4cccnc4c3O)c3ccccc3)C(=O)N2[C@H]1C(=O)O: 14.6 µM
- CC(C)(Oc1ccc(Cl)cc1)C(=O)NC(=O)NCN1CCOCC1 [PLAFIBRIDE]: > 30 µM
- COC(=O)N[C@H](C(=O)N1CC2(CC2)C[C@H]1c1ncc(-c2ccc3c(c2)C(F)(F)c2cc(-c4ccc5nc([C@@H]6[C@H]7CC[C@H](C7)N6C(=O)[C@@H](NC(=O)OC)C(C)C)[nH]c5c4)ccc2-3)[nH]1)C(C)C: > 30 µM
- O=C(Cc1cccs1)N[C@@H]1C(=O)N2C(C(=O)[O-])=C(C[n+]3ccccc3)CS[C@H]12: > 30 µM
- CC(C)(Oc1ccc(C(=O)c2ccc(Cl)cc2)cc1)C(=O)O: > 30 µM
- CCCCCCO[C@@H](C)c1cccc(-c2csc(NC(=O)c3cc(Cl)c(/C=C(\C)C(=O)O)c(Cl)c3)n2)c1OC: 6.42 µM
- Nc1ccc(C(=O)NCC(=O)O)cc1: > 30 µM
- OCc1ccccc1: > 30 µM
- CC(O)(CC(=O)O)CC(=O)O: > 30 µM
- CC(CN(C)C)CN1c2ccccc2CCc2ccccc21 (configuration not stated): > 30 µM
- C#CCN(C)Cc1ccccc1: > 30 µM
- Cc1ccc2c([nH]c(=O)c3c(=O)cc(C(=O)OCCC(C)C)oc32)c1C: 21.3 µM
- C[C@@H](O)[C@H]1C(=O)N2C(C(=O)O)=C(S[C@@H]3CN[C@H](C(=O)Nc4cccc(C(=O)O)c4)C3)[C@H](C)[C@H]12: 19.9 µM
- CCCCCCCC/C=C\CCCCCCCC(=O)O: 3.54 µM
- N#Cc1ccnc(N2C(=O)CC[C@H]2C(=O)N(c2cncc(F)c2)[C@H](C(=O)NC2CC(F)(F)C2)c2ccccc2Cl)c1: > 30 µM
- CC(C)Nc1cccnc1N1CCN(C(=O)c2cc3cc(NS(C)(=O)=O)ccc3[nH]2)CC1: > 30 µM

###

What follows is a collection of AC50 values obtained with D(1A) dopamine receptor (Homo sapiens).
Sequence (P21728 whole entry): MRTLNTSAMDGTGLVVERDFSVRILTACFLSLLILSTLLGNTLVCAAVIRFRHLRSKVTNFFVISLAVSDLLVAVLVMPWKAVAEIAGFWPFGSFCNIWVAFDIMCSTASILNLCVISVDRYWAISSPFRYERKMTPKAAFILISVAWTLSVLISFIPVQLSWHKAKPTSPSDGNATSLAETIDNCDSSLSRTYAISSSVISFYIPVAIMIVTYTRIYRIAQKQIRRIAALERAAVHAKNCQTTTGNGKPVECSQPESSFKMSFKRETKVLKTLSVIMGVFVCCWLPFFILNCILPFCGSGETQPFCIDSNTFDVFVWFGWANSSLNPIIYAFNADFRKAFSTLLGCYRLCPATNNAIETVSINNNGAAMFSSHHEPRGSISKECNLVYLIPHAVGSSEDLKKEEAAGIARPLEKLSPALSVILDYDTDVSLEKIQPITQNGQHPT
VALUE_TYPE: AC50

* C#CCN(C)Cc1ccccc1 | > 30 µM
* CCCCCCO[C@@H](C)c1cccc(-c2csc(NC(=O)c3cc(Cl)c(/C=C(\C)C(=O)O)c(Cl)c3)n2)c1OC | 5.53 µM
* COc1cc(C(=O)NCc2ccc(OCCN(C)C)cc2)cc(OC)c1OC [TRIMETHOBENZAMIDE] | > 30 µM
* CC#CC(=O)N1CCC[C@H]1c1nc(-c2ccc(C(=O)Nc3ccccn3)cc2)c2c(N)nccn12 | > 30 µM
* OC(CN1CCCCC1)c1cc(-c2ccccc2)on1 (stereo not given) | > 30 µM

###

- TESTED_ON: Bile salt export pump (Homo sapiens)
- Sequence (O95342 whole entry): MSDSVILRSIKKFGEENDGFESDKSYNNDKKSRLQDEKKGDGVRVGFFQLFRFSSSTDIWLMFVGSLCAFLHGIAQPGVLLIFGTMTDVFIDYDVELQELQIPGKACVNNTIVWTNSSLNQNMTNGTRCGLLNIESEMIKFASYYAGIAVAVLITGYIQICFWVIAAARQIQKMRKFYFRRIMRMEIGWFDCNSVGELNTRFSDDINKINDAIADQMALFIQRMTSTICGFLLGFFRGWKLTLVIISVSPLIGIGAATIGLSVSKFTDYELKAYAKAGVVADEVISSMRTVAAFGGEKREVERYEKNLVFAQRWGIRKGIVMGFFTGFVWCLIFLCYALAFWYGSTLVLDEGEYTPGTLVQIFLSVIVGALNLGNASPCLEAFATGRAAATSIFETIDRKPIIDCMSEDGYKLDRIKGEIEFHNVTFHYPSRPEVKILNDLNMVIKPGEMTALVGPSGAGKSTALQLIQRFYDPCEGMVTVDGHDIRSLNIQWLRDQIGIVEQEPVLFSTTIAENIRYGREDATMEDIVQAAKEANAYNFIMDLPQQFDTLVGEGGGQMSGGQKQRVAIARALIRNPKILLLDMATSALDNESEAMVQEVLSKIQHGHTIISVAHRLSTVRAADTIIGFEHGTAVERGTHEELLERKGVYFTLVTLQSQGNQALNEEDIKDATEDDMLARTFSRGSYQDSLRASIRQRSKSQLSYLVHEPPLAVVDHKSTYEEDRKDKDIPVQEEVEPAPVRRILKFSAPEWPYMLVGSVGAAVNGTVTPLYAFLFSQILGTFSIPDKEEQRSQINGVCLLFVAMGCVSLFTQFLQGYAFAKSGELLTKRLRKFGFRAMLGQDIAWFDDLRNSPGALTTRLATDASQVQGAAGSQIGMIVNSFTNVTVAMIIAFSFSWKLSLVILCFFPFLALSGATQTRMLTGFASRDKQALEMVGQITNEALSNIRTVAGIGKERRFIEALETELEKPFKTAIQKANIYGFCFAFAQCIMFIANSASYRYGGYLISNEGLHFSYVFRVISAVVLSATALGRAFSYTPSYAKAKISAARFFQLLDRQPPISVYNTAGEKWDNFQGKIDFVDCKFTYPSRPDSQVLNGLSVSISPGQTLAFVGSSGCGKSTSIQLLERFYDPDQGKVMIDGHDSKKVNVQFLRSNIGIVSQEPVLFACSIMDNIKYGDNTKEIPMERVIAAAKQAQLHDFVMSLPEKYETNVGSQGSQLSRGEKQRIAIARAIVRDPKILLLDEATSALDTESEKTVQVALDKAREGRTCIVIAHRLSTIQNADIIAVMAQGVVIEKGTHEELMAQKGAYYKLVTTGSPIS
- Type: functional
Examples of compounds with documented AC50 follow.
VALUE_TYPE: AC50

- CC1=C(C/C=C(\C)CCC[C@H](C)CCC[C@H](C)CCCC(C)C)C(=O)c2ccccc2C1=O [PHYTONADIONE]: 160 µM
- c1cnc2cc3c(cc2n1)[C@@H]1CNC[C@H]3C1 [VARENICLINE]: > 300 µM
- CCN(CCO)CCCC(C)Nc1ccnc2cc(Cl)ccc12 (centres undefined) [HYDROXYCHLOROQUINE]: > 300 µM
- CCOc1ccccc1OCCN[C@H](C)Cc1ccc(OC)c(S(N)(=O)=O)c1 [TAMSULOSIN]: > 300 µM
- CN(C)CCOC(c1ccc(Cl)cc1)c1ccccn1 (centres undefined) [CARBINOXAMINE]: > 300 µM
- Cc1c(C)c2c(c(C)c1O)CCC(C)(COc1ccc(CC3SC(=O)NC3=O)cc1)O2 (centres undefined) [TROGLITAZONE]: 5.01 µM
- C[C@H](Cn1cnc2c(N)ncnc21)OCP(=O)(O)O [TENOFOVIR ANHYDROUS]: > 300 µM
- NCCCCCC(=O)O [AMINOCAPROIC ACID]: > 300 µM
- O=P1(N(CCCl)CCCl)NCCCO1 (centres undefined) [CYCLOPHOSPHAMIDE ANHYDROUS]: > 300 µM
- Nc1cccc2c1CN(C1CCC(=O)NC1=O)C2=O (centres undefined) [LENALIDOMIDE]: > 300 µM
- Cn1cnc2c(F)c(Nc3ccc(Br)cc3F)c(C(=O)NOCCO)cc21 [BINIMETINIB]: 87 µM
- CCC[C@@]1(CCc2ccccc2)CC(O)=C([C@H](CC)c2cccc(NS(=O)(=O)c3ccc(C(F)(F)F)cn3)c2)C(=O)O1: 3.2 µM
- O=C(O)[C@H]1/C(=C/CO)O[C@@H]2CC(=O)N21 [CLAVULANIC ACID]: > 300 µM
- Nc1c2c(nc3ccccc13)CCCC2O (centres undefined) [VELNACRINE]: > 300 µM
- COC(=O)CCc1ccc(OCC(O)CNC(C)C)cc1 (centres undefined) [ESMOLOL]: > 300 µM
- CC(C)/N=c1\cc2n(-c3ccc(Cl)cc3)c3ccccc3nc-2cc1Nc1ccc(Cl)cc1 [CLOFAZIMINE]: 12 µM
- C=CCOc1ccc(CC(=O)O)cc1Cl [ALCLOFENAC]: > 300 µM
- CN1CCN(C(c2ccccc2)c2ccc(Cl)cc2)CC1 (centres undefined) [CHLORCYCLIZINE]: > 300 µM
- N[C@@H](Cc1cc(I)c(Oc2cc(I)c(O)c(I)c2)c(I)c1)C(=O)O [LEVOTHYROXINE]: > 300 µM

###

- TESTED_ON: Muscarinic acetylcholine receptor M1 (Homo sapiens, UniProt P11229)
- Sequence (P11229 whole entry): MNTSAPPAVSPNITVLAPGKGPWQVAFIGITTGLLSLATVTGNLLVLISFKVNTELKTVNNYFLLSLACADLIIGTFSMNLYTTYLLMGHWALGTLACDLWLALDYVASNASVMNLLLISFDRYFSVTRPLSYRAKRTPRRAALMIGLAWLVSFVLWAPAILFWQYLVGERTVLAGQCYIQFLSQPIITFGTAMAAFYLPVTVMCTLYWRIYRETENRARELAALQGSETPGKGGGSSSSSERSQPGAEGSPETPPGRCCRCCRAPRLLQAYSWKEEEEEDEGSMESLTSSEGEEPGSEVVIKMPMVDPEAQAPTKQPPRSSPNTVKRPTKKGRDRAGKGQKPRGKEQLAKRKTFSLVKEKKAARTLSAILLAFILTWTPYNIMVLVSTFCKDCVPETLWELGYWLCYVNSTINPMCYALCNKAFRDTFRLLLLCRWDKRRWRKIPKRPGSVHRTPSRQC
- Assay type: functional
Examples of compounds with documented AC50 follow.
VALUE_TYPE: AC50

• CN(C)CCOC(=O)C(c1ccccc1)C1(O)CCCC1 (configuration not stated) [CYCLOPENTOLATE] = 0.069 µM
• COc1cc2c(cc1OC)C1CC(=O)C(CC(C)C)CN1CC2 (configuration not stated) = > 30 µM
• CN(C)CCC(O)(c1ccccc1)c1ccccc1Cl (configuration not stated) = > 10 µM
• NS(=O)(=O)c1ccc(N2CCCCS2(=O)=O)cc1 = > 30 µM
• C=C(c1ccccc1OCc1cccc(Cl)c1)n1ccnc1 = > 10 µM
• CCN1C(=O)NC(c2ccccc2)C1=O (configuration not stated) = > 30 µM
• Cc1cn(-c2cc(NC(=O)c3ccc(C)c(Nc4nccc(-c5cnccn5)n4)c3)cc(C(F)(F)F)c2)cn1 = > 30 µM

###

- TESTED_ON: Delta-type opioid receptor (Homo sapiens, UniProt P41143)
- Sequence (P41143 whole entry): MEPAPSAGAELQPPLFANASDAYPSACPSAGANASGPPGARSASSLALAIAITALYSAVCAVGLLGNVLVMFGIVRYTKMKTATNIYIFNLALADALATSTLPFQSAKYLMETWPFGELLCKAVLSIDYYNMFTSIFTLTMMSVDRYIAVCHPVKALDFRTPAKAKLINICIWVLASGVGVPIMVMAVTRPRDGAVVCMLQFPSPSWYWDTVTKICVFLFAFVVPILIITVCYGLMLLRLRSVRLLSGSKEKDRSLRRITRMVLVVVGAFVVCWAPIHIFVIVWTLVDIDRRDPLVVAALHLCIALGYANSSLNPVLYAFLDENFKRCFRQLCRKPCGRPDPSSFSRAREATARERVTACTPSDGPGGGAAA
VALUE_TYPE: AC50

* CC(=O)N1CCN(c2ccc(OCC3COC(Cn4ccnc4)(c4ccc(Cl)cc4Cl)O3)cc2)CC1 (stereo not drawn) | > 10 µM
* CCOCC(O)COc1ccc(NC(=O)CC[S+](C)C)cc1 (stereo not drawn) | > 30 µM
* COc1cccc2c1C(=O)c1c(O)c3c(c(O)c1C2=O)C[C@@](O)(C(=O)CO)C[C@@H]3O[C@H]1C[C@H](N)[C@H](O)[C@H](C)O1 | > 30 µM
* CCCCC[C@H](O)CC[C@@H]1[C@H]2Cc3cccc(OCC(=O)O)c3C[C@H]2C[C@H]1O | > 30 µM
* CC(C)(C)NCC(O)COc1cccc2c1CC(O)C(O)C2 (stereo not drawn) | > 30 µM
* Nc1nnc(-c2cccc(Cl)c2Cl)c(N)n1 | > 30 µM
* CC(C)(N)Cc1ccccc1 | > 30 µM
* COc1ccc(C(Cl)=C(c2ccc(OC)cc2)c2ccc(OC)cc2)cc1 | > 30 µM
* CC(=O)Oc1cccc2c1C(=O)c1c(OC(C)=O)cc(C(=O)O)cc1C2=O | > 30 µM
* CS(=O)(=O)NC(=O)CCC/C=C\C[C@H]1C(=O)C[C@@H](O)[C@@H]1/C=C/[C@@H](O)COc1ccccc1 | > 30 µM
* CCN(CC)CCn1c(=O)c(Cc2ccc(OC)cc2)nc2ccccc21 | 26 µM
* Oc1cc(Cl)ccc1Oc1ccc(Cl)cc1Cl | > 30 µM
* C[C@@H](Cc1ccccc1)N(C)Cc1ccccc1 | > 30 µM
* CCC(=O)[C@@]1(C)[C@H](C)C[C@H]2[C@@H]3CCC4=CC(=O)C=C[C@]4(C)[C@H]3[C@@H](O)C[C@@]21C [RIMEXOLONE] | > 30 µM
* CCC(NC(C)C)C(O)c1ccc(O)c(O)c1 (stereo not drawn) | > 30 µM
* Cc1ccc(O)c([C@H](CCN(C(C)C)C(C)C)c2ccccc2)c1 | > 10 µM
* O=C(O[C@H]1C[N+]2(CCCOc3ccccc3)CCC1CC2)C(O)(c1cccs1)c1cccs1 [ACLIDINIUM BROMIDE] | > 30 µM
* Oc1cc(O)c2c(c1)O[C@H](c1ccc(O)c(O)c1)[C@@H](O)C2 | > 30 µM
